Assay: in vitro
Settings: human, Exp 2 CC50 Hap1
MEASURE: CC50

Please review the following examples before continuing.
[
  {
    "COMPOUND": "COc1ccc(N(Cc2ccc(F)cc2)C(=O)c2cccs2)cc1",
    "CC50": "54 µM"
  },
  {
    "COMPOUND": "O=C(c1ccco1)N(Cc1ccccc1)c1ccccc1 [Compound 19a, N-Benzyl-N-phenylfuran-2-carboxamide]",
    "CC50": "> 100 µM"
  },
  {
    "COMPOUND": "COc1ccc(N(Cc2ccccc2)C(=O)c2ccco2)cc1 [Compound 19c]",
    "CC50": "> 100 µM"
  },
  {
    "COMPOUND": "COc1ccc(N(Cc2ccc(F)cc2)C(=O)c2cc[nH]c2)cc1 [Compound 12a]",
    "CC50": "> 100 µM"
  },
  {
    "COMPOUND": "COc1ccc(N(Cc2ccc(F)cc2)C(=O)c2ccco2)cc1",
    "CC50": "46.1 µM"
  }
]

Next up:
// field: CC50; key: `COc1ccc(N(Cc2ccc(F)cc2)C(=O)c2ccc[nH]2)cc1` ; value = > 100 µM

Where these numbers come from: paper PMC7673538
